Experiment: CCTE_Simmons_MITO_viability: CellTiter-Glo Viability Assessment for CCTE's HepG2 Seahorse XF Respirometric Screening Assay [post-hoc], Simmons Lab (AID 2284007)
Inconclusive results are not listed. Activity calls are given as the source filed them. Rule for the calls: active = hit-call score of the fitted dose curve at least 0.9, where 1 is the maximum; inconclusive = response in the unintended direction; inactive = score below 0.9.
Your reply should match one of these outcome classes. 1.0 for active, 0.0 for inactive

Check out these entries, answers already filled in.
molecule	class
CC(C)(C)C(O)(CCc1ccc(Cl)cc1)Cn1cncn1 (stereo not given)	0.0
[Cl-].[Cl-].[Hg+2]	1.0
CCOC(=O)[C@]1(c2ccccc2)Oc2ccccc2[C@@H]1N	0.0
Nc1ccc(N=Nc2ccccc2)cc1	0.0

Kindly review the next molecule as well.
Ask: How was `CC(C)COC(=O)c1ccccc1C(=O)OCC(C)C` classified in this test?
Result: 0.0
